# testSystem: UniProt Q99759
# Sequence (Q99759 whole entry, looked up): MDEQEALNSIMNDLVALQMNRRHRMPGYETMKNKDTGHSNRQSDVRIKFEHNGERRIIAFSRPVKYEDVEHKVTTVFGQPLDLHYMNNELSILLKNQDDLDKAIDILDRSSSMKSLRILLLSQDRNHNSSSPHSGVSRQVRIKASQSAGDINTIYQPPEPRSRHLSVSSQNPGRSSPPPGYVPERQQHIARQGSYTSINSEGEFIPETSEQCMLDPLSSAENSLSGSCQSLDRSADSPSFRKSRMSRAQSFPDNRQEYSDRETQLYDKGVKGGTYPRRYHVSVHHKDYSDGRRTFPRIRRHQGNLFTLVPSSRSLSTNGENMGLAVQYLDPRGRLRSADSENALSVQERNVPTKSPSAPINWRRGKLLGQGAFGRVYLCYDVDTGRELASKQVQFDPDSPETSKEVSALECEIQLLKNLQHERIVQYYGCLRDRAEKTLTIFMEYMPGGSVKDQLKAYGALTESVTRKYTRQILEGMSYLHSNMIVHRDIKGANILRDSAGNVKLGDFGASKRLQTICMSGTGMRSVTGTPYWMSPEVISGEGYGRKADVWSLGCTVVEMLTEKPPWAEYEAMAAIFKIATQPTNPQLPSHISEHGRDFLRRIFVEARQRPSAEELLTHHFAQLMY
# methodDescription: radiometric filter-binding kinase assay, Kinase HotSpot
# protocolConditions: compound 0.5 µM; ATP 10 µM

{"smilesStr": "Nc1ccc2ncnc(NCCc3ccc(Oc4ccccc4)cc3)c2c1", "residual activity": "106%"}
{"smilesStr": "O=c1cc(N2CCOCC2)oc2c1ccc1ccccc12", "residual activity": "102%"}
{"smilesStr": "Nc1ncnc2[nH]nc(Nc3ccc(F)cc3)c12", "residual activity": "87.6%"}
{"smilesStr": "O=C(Nc1cccc(Nc2nccc(Nc3cccc(C(F)(F)F)c3)n2)c1)C1CC1", "residual activity": "97.9%"}

====

# testSystem: UniProtKB O14920
# Sequence (O14920 whole entry, looked up): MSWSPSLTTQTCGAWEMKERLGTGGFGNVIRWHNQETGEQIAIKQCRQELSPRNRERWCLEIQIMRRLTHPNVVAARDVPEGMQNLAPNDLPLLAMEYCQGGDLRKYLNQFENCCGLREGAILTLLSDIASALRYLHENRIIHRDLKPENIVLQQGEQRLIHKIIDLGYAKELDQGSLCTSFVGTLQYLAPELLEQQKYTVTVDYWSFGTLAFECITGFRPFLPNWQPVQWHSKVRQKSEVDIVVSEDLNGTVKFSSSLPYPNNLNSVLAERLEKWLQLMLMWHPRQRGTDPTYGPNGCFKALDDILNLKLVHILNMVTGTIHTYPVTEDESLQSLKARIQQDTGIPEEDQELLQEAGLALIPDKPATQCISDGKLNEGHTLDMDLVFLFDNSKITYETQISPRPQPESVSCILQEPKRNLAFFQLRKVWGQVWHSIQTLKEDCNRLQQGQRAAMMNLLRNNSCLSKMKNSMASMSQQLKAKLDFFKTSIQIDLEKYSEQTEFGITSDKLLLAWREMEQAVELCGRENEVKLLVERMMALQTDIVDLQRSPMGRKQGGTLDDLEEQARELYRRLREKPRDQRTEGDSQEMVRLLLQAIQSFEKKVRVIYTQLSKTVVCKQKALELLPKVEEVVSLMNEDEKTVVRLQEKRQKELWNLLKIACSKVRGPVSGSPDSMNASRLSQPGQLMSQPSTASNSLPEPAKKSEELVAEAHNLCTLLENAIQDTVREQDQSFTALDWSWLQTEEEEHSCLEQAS
# methodDescription: radiometric filter-binding kinase assay, Kinase HotSpot
# protocolConditions: compound 0.5 µM; ATP 10 µM
# Lookup of reported residual activity keyed by entry

{"smilesStr": "Nc1ncnc2[nH]nc(Nc3ccc(F)cc3)c12", "residual activity (%)": 105}
{"smilesStr": "Nc1ncnc2c1c(-c1ccc(Oc3ccccc3)cc1)cn2C1CCCC1", "residual activity (%)": 101}
{"smilesStr": "Cc1ccc(NC2=CC(=O)c3sc(C)nc3C2=O)cc1", "residual activity (%)": 97.3}
{"smilesStr": "Cc1ccc(S(=O)(=O)/C=C/C#N)cc1", "residual activity (%)": 110}
{"smilesStr": "CNc1cc2c(Nc3cccc(Br)c3)ncnc2cn1", "residual activity (%)": 98.2}
{"smilesStr": "O=C1NC(=O)/C(=C/c2ccc3c(c2)OC(F)(F)O3)S1", "residual activity (%)": 96.1}

====

# testSystem: AKT1 (human) (UniProt P31749)
# Sequence (P31749 whole entry, looked up): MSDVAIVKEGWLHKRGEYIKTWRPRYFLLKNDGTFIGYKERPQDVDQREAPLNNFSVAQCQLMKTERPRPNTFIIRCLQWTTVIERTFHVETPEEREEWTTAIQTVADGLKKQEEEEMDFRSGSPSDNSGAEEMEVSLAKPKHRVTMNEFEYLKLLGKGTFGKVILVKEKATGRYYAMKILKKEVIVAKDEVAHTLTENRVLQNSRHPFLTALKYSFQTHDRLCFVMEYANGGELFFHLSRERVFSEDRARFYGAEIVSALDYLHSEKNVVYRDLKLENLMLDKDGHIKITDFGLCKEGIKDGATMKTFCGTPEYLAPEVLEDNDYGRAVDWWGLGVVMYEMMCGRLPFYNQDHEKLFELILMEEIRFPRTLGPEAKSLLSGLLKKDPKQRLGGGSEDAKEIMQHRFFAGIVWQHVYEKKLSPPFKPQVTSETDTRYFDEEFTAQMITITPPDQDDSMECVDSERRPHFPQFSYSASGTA
# methodDescription: radiometric filter-binding kinase assay, Kinase HotSpot
# protocolConditions: compound 0.5 µM; ATP 10 µM
// reported residual activity for each item listed
measuredQuantity: residual activity (%)

{"smilesStr": "Nc1ncnc2c1c(-c1ccc(Oc3ccccc3)cc1)cn2C1CCCC1", "testSystem": "AKT1 (human) (UniProt P31749)", "recordedResult": 103}
{"smilesStr": "COc1cc2ncnc(Nc3cccc(Cl)c3)c2cc1OC", "testSystem": "AKT1 (human) (UniProt P31749)", "recordedResult": 89.9}
{"smilesStr": "CCN(CC)CCNC(=O)c1c(C)[nH]c(/C=C2\\C(=O)Nc3ccc(F)cc32)c1C", "testSystem": "AKT1 (human) (UniProt P31749)", "recordedResult": 105}
{"smilesStr": "CC(C)N(CCC(=O)c1ccc2ccccc2c1)Cc1ccccc1", "testSystem": "AKT1 (human) (UniProt P31749)", "recordedResult": 100}

====

# testSystem: TEC (human) (UniProt P42680)
# Sequence (P42680 whole entry, looked up): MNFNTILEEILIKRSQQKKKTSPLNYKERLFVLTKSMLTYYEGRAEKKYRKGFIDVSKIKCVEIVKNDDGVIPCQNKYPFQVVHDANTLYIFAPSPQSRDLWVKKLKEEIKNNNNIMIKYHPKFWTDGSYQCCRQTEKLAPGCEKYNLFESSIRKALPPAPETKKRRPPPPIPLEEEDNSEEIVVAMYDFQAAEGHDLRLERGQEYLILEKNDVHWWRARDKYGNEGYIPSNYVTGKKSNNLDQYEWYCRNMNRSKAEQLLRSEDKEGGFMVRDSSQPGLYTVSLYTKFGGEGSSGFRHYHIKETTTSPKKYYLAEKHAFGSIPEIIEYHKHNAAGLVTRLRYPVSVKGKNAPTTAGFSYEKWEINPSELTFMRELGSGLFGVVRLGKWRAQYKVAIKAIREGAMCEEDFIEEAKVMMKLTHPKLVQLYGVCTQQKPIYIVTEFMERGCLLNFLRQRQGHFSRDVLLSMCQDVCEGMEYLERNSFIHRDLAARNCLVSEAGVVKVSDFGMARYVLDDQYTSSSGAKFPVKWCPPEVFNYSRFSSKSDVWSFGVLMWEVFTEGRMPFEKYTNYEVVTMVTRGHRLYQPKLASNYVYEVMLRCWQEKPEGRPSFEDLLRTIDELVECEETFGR
# methodDescription: radiometric filter-binding kinase assay, Kinase HotSpot
# protocolConditions: compound 0.5 µM; ATP 10 µM
Below: a set of entries, each annotated with reported residual activity.
measuredQuantity: residual activity (%)

{"compound": "Cc1ccc(NC2=CC(=O)c3sc(C)nc3C2=O)cc1", "recordedResult": 117}
{"compound": "O=S(=O)(c1cccc2cnccc12)N1CCCNCC1", "recordedResult": 109}
{"compound": "Nc1ncnc2[nH]nc(Nc3ccc(F)cc3)c12", "recordedResult": 86}
{"compound": "c1ccc(-c2n[nH]cc2-c2ccnc3ccccc23)nc1", "recordedResult": 106}
{"compound": "O=C1NC(=O)c2c1c1c3ccccc3n3c1c1c2c2ccccc2n1C1CCC3O1", "recordedResult": 142}
{"compound": "c1ccc(-c2n[nH]c3c2oc2ccccc23)cc1", "recordedResult": 95.6}
{"compound": "Nc1ccc2ncnc(NCCc3ccc(Oc4ccccc4)cc3)c2c1", "recordedResult": 88.3}
{"compound": "Oc1cccc(-c2nc(N3CCOCC3)c3oc4ncccc4c3n2)c1", "recordedResult": 113}
{"compound": "CCN(CC)CCNC(=O)c1c(C)[nH]c(/C=C2\\C(=O)Nc3ccc(Cl)cc32)c1C", "recordedResult": 102}
{"compound": "Cc1ccc(Nc2nccc(N(C)c3ccc4c(C)n(C)nc4c3)n2)cc1S(N)(=O)=O", "recordedResult": 101}
{"compound": "Cc1ccc(S(=O)(=O)/C=C/C#N)cc1", "recordedResult": 144}
{"compound": "Nc1cccc(-c2cc3c(Oc4cccc(O)c4)ncnc3[nH]2)c1", "recordedResult": 108}
{"compound": "O=C1NC(=O)/C(=C/c2ccc3c(c2)OC(F)(F)O3)S1", "recordedResult": 108}
{"compound": "CC(=O)c1ccc(N2CCOCC2)cc1O", "recordedResult": 139}
{"compound": "Nc1ncnc2c1c(-c1ccc(Oc3ccccc3)cc1)cn2C1CCCC1", "recordedResult": 8.33}
{"compound": "CCC(=O)Nc1ccc2ncnc(Nc3cccc(Br)c3)c2c1", "recordedResult": 103}
{"compound": "CNc1cc2c(Nc3cccc(Br)c3)ncnc2cn1", "recordedResult": 109}
{"compound": "CO[C@H]1CC2CC[C@@H](C)[C@@](O)(O2)C(=O)C(=O)N2CCCC[C@H]2C(=O)OC([C@H](C)C[C@@H]2CC[C@@H](O)[C@H](OC)C2)CC(=O)[C@H](C)/C=C(\\C)[C@@H](O)[C@@H](OC)C(=O)[C@H](C)C[C@H](C)/C=C/C=C/C=C/1C (some centres not stated)", "recordedResult": 138}
{"compound": "CCN(CC)C(=O)c1ccc(Nc2nc(OCC3CCCCC3)c3nc[nH]c3n2)cc1", "recordedResult": 63}
{"compound": "COc1cc2ncnc(Nc3cccc(Cl)c3)c2cc1OC", "recordedResult": 126}
{"compound": "CNC(=O)c1cc(Oc2ccc(NC(=O)Nc3ccc(Cl)c(C(F)(F)F)c3)cc2)ccn1", "recordedResult": 101}
{"compound": "O=c1cc(N2CCOCC2)oc2c1ccc1ccccc12", "recordedResult": 150}

====

# testSystem: MAP3K9 (human)
# methodDescription: radiometric filter-binding kinase assay, Kinase HotSpot
# protocolConditions: compound 0.5 µM; ATP 10 µM
measuredQuantity: residual activity (%)

{"smilesStr": "Cc1ccc(Nc2nccc(N(C)c3ccc4c(C)n(C)nc4c3)n2)cc1S(N)(=O)=O", "recordedResult": 10.6}
{"smilesStr": "N#C/C(=C(/N)Sc1ccc(N)cc1)c1ccccc1C(F)(F)F", "recordedResult": 85.9}
{"smilesStr": "CNC(=O)c1cc(Oc2ccc(NC(=O)Nc3ccc(Cl)c(C(F)(F)F)c3)cc2)ccn1", "recordedResult": 103}
{"smilesStr": "Nc1ccc2ncnc(NCCc3ccc(Oc4ccccc4)cc3)c2c1", "recordedResult": 103}
{"smilesStr": "c1ccc(-c2n[nH]cc2-c2ccnc3ccccc23)nc1", "recordedResult": 90.4}
{"smilesStr": "O=C1NC(=O)C(c2cn(CCCn3ccnc3)c3ccccc23)=C1Nc1ccccc1", "recordedResult": 30.6}
{"smilesStr": "COc1ccc(COc2ccc(Cc3cnc(N)nc3N)cc2OC)cc1", "recordedResult": 105}
{"smilesStr": "N#CC(C#N)=C(N)/C(C#N)=C/c1ccc(O)cc1", "recordedResult": 94.4}
{"smilesStr": "CCN(CC)CCNC(=O)c1c(C)[nH]c(/C=C2\\C(=O)Nc3ccc(Cl)cc32)c1C", "recordedResult": 49.6}
{"smilesStr": "Nc1cccc(-c2cc3c(Oc4cccc(O)c4)ncnc3[nH]2)c1", "recordedResult": 16.2}

====

# testSystem: PRKCA (human)
# methodDescription: radiometric filter-binding kinase assay, Kinase HotSpot
# protocolConditions: compound 0.5 µM; ATP 10 µM
measuredQuantity: residual activity (%)

{"smilesStr": "Cc1[nH]c(/C=C2\\C(=O)Nc3ccc(S(=O)(=O)N(C)c4cccc(Cl)c4)cc32)c(C)c1C(=O)N1CCN(C)CC1", "recordedResult": 91.9}
{"smilesStr": "Cc1ccc(NC2=CC(=O)c3sc(C)nc3C2=O)cc1", "recordedResult": 100}
{"smilesStr": "N#C/C(=C(/N)Sc1ccc(N)cc1)c1ccccc1C(F)(F)F", "recordedResult": 100}
{"smilesStr": "CC(=O)c1ccc(N2CCOCC2)cc1O", "recordedResult": 73.4}
{"smilesStr": "CCC(=O)Nc1ccc2ncnc(Nc3cccc(Br)c3)c2c1", "recordedResult": 96.5}
{"smilesStr": "Oc1cccc(-c2nc(N3CCOCC3)c3oc4ncccc4c3n2)c1", "recordedResult": 103}
{"smilesStr": "N#CC(C#N)=C(N)/C(C#N)=C/c1ccc(O)cc1", "recordedResult": 97.4}
{"smilesStr": "Cc1ccc(Nc2nccc(N(C)c3ccc4c(C)n(C)nc4c3)n2)cc1S(N)(=O)=O", "recordedResult": 94.4}
{"smilesStr": "CCN(CC)C(=O)c1ccc(Nc2nc(OCC3CCCCC3)c3nc[nH]c3n2)cc1", "recordedResult": 82.5}
{"smilesStr": "O=C1NC(=O)c2c1c1c3ccccc3n3c1c1c2c2ccccc2n1C1CCC3O1", "recordedResult": 13.9}
